I'd appreciate it if you could supply melting point values for the items below.

CC(=O)NC[C@H]1CN(c2ccc(N3C[C@@H]4C[C@H]3CS4)c(F)c2)C(=O)O1 = 90 to 95 °C
CC(C)(C)OC(=O)N1CC(=O)Nc2cccc(F)c21 = 155 to 156 °C
O=C(O)CNc1ccc2ccccc2c1 = 219 to 221 °C

Dear reader, for each entry below, please note its melting point.
1. OCc1ccc(OCCCCCSc2ccnc3cc(C(F)(F)F)ccc23)cc1
2. CC(O)c1cccc(S(N)(=O)=O)c1 (stereo not given)
3. COc1ccc(C2(C#N)CCC(NS(C)(=O)=O)CC2)c2c1oc1ccccc12 (stereo not given)
4. N#Cc1cccc(C2C(=O)N(Cc3ccccc3)Cc3cncn32)c1 (stereo not given)
5. COC(CN(C)C(=O)Nc1nnc(C(C)Oc2ccccc2Cl)s1)OC (stereo not given)

# output
98.3 °C
137 to 139 °C
176 to 178 °C
163 to 165 °C
101 to 104 °C

Dear reader, for each entry below, please note its melting point.
1. CCCCCCCCCCOc1ccc(O)c2ccccc12
2. COc1ccc2c(c1)NCc1ccccc1O2
3. Nc1cc(CCC(=O)NC23CC4CC(CC(C4)C2)C3)ccc1O
4. CCCCOC(=O)Cc1nc(-c2ccc(F)cc2)oc1-c1ccsc1
5. CN(CCCc1ccccc1)[C@H]1CC[C@H](c2ccc3[nH]c(=O)oc3c2)CC1
6. CCO[C@@H]1[C@@H](OC)[C@H](C)O[C@@H](OC(=O)N(C(C)=O)c2ccc(-c3ncn(-c4ccc(OC(F)(F)C(F)(F)F)cc4)n3)cc2)[C@@H]1OC
7. COC(=O)COc1cccc(CCN(C)CCCC(C#N)(c2ccc(OC)c(OC)c2)C(C)C)c1 (stereo not given)
8. N=C(c1ccccc1)c1cc(Cl)ccc1O

# output
1. 89 to 90 °C
2. 110 to 112 °C
3. 79 to 80 °C
4. 81 to 82 °C
5. 58 to 62 °C
6. 70 to 72 °C
7. 96 to 100 °C
8. 129 to 131 °C

Dear reader, for each entry below, please note its melting point.
1. CN(C)/C=N/c1nc(=O)n(C(=O)NCc2ccccc2)cc1F
2. O=Cc1cc(O)c(O)c([N+](=O)[O-])c1
3. CC(=O)NC1Cc2ccc(CCN3CCN(c4nsc5ccccc45)CC3)cc2C1(C)C (stereo not given)
4. NC[C@@H]1CNc2cccc(-c3ccccc3C(F)(F)F)c2O1

# output
1: 147 to 150 °C; 2: 142 to 143 °C; 3: 62 to 72 °C; 4: 180 °C

Dear reader, for each entry below, please note its melting point.
1. CCOC(=O)c1cnn(Cc2ccc(OCc3nc(-c4ccccc4)oc3C)cc2)c1
2. Cn1cc(-c2cc3cccnc3[nH]2)c2ccc(C(=O)O)cc21

# output
1: 108 to 109 °C; 2: 359 to 361 °C

Dear reader, for each entry below, please note its melting point.
1. COc1ccc(CON(Cc2ccccc2)S(C)(=O)=O)cc1
2. CCN(CC)S(=O)(=O)c1cc(C)c2c(c1)S(=O)(=O)NC(C1CCCCC1)=N2
3. COC(=O)c1cc(C(F)(F)F)[nH]c1-c1ccc(Cl)cc1
4. CC(Br)C(=O)c1ccc(OCc2ccccc2)c(CO)c1 (stereo not given)

# output
1: 85 to 87 °C; 2: 206 to 208 °C; 3: 120 to 122 °C; 4: 80 °C

Dear reader, for each entry below, please note its melting point.
1. COc1ccc(C(=O)c2cccc(OCc3nc(-c4ccccc4)oc3C)c2)c(OCCOC(C)=O)c1
2. O=C(N[C@H]1CC[C@H](CCN2CCN(c3nccc4c3OCC4)CC2)CC1)c1ccc(N2CCOCC2)nc1
3. CCOC(=O)c1ccc(/C=C(\C)C=O)c(OC)c1
4. CCn1c(=O)c2c(nc(/C=C/c3ccc(OCCCCBr)cc3)n2C)n(CC)c1=O
5. CCCc1c(OCCCCCOc2ccc(OCCCC(=O)O)cc2CCC(=O)O)ccc2c1OCCC2=O
6. O=C(O)c1ccc2c(c1)S(=O)(=O)c1ccc([N+](=O)[O-])cc1C=C2
7. CCc1ncnc(NC(C)c2ccc([Si](C)(C)C)cc2)c1Cl (stereo not given)
8. COc1ccc(CNc2n[nH]c3ncnc(Nc4cccc(Cl)c4)c23)cc1O

# output
["90 to 91 °C", "231 °C", "59 to 61 °C", "175 to 176 °C", "119 to 124 °C", "310 to 312 °C", "79 to 80 °C", "225 to 227 °C"]

Dear reader, for each entry below, please note its melting point.
1. N#Cc1ccccc1NC1CCN(Cc2ccccc2)CC1
2. C=C(c1c(C#N)nn(-c2c(Cl)cc(C(F)(F)F)cc2Cl)c1N)C(F)(F)F
3. CN(C)C(=O)c1cc(N2CCN([C@H]3CC[C@@H](c4cn(C)c5ccc(C#N)cc54)CC3)CC2)c2ncccc2c1

# output
104 to 105 °C
147 to 148 °C
163 to 165 °C

Dear reader, for each entry below, please note its melting point.
1. CC(C)(C)OC(=O)N1CCN(CCOc2cc(-c3ccccc3)on2)CC1
2. CSC1CCC(=O)C(C(=O)c2ccc(S(C)(=O)=O)cc2Cl)C1=O (stereo not given)
3. N#Cc1cc2ccc(O)cc2s1

# output
110 to 111 °C
146 to 149 °C
195 to 198 °C

Where these numbers come from: a melting point compilation (Tetko et al.; mined from patent text by program, amines drawn as free bases though some values may be those of a salt)
